Assay Info: in vitro
Condition Parameters: human, blood
Description: Half-life (human blood stability)
Measured Parameter: half-life (min)

- Compound: "CCC(C)c1cccc2c1C(=O)N(CSc1nnnn1-c1ccccc1)S2(=O)=O (configuration not stated)"
  Output Unit: "min"
  Bound Operator: "="
  Numeric Readout: 58
- Compound: "COc1cc2c(c(C(C)C)c1OC)C(=O)N(CSc1nnnn1-c1ccccc1)S2(=O)=O"
  Output Unit: "min"
  Bound Operator: "="
  Numeric Readout: 65
- Compound: "CC(C)c1cc(F)cc2c1C(=O)N(COC(=O)c1c(Cl)cccc1Cl)S2(=O)=O"
  Output Unit: "min"
  Bound Operator: "<"
  Numeric Readout: 15
- Compound: "CCCc1cccc2c1C(=O)N(CSc1nnnn1-c1ccccc1)S2(=O)=O"
  Output Unit: "min"
  Bound Operator: "="
  Numeric Readout: 55
- Compound: "CC(C)c1cccc2c1C(=O)N(CSc1nnnn1-c1ccccc1)S2(=O)=O"
  Output Unit: "min"
  Bound Operator: "="
  Numeric Readout: 45
- Compound: "CCc1cccc2c1C(=O)N(CSc1nnnn1-c1ccccc1)S2(=O)=O"
  Output Unit: "min"
  Bound Operator: "="
  Numeric Readout: 54
- Compound: "COc1cc(C(C)C)c2c(c1)S(=O)(=O)N(COC(=O)c1c(Cl)cccc1Cl)C2=O"
  Output Unit: "min"
  Bound Operator: "="
  Numeric Readout: 140

====

Tested On: Neutrophil elastase (Homo sapiens)
Sequence (P08246 whole entry): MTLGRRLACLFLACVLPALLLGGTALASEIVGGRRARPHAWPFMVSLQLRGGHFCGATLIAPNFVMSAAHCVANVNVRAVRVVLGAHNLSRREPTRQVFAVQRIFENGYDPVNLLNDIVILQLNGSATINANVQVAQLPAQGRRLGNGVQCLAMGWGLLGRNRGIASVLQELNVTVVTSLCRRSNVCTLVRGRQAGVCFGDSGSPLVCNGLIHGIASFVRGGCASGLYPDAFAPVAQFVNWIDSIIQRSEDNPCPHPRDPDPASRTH
Doc: threshold 2 nM (exclusive). Items with Ki beneath it return met; others return not met.

- Smiles Representation: "CC(C)c1cc(F)cc2c1C(=O)N(COC(=O)c1c(Cl)cccc1Cl)S2(=O)=O"
  Category Label: "met"
- Smiles Representation: "CCCc1c(OC)c(OC)cc2c1C(=O)N(CSc1nnnn1-c1ccccc1)S2(=O)=O"
  Category Label: "met"
- Smiles Representation: "COc1cc2c(c(C(C)C)c1OC)C(=O)N(CSc1nnnn1-c1ccccc1)S2(=O)=O"
  Category Label: "not met"
- Smiles Representation: "CC(C)c1cc(N(C)C)cc2c1C(=O)N(COC(=O)c1c(Cl)cccc1Cl)S2(=O)=O"
  Category Label: "not met"
- Smiles Representation: "CC(C)c1cc(N2CCN(C)CC2)cc2c1C(=O)N(COC(=O)c1c(Cl)cccc1Cl)S2(=O)=O"
  Category Label: "met"
- Smiles Representation: "CC(C)(C)c1cccc2c1C(=O)N(CSc1nnnn1-c1ccccc1)S2(=O)=O"
  Category Label: "not met"

====

Assay Info: Half-life was determined; 88% of parent remained after incubation for 120 min (human blood stability)
Assay type: ADME, tissue-based

- Smiles Representation: "CC(C)(C)c1cccc2c1C(=O)N(CSc1nnnn1-c1ccccc1)S2(=O)=O"
  half-life: "> 2 h"

====

Overview of reported half-life across a group of compounds:
Assay Info: in vitro
Condition Parameters: human, blood

- Smiles Representation: "CC(C)c1cc(N2CCN(C)CC2)cc2c1C(=O)N(COC(=O)c1c(Cl)cccc1Cl)S2(=O)=O"
  Bound Operator: "="
  half-life / min: 110
- Smiles Representation: "CCCc1c(OC)c(OC)cc2c1C(=O)N(CSc1nnnn1-c1ccccc1)S2(=O)=O"
  Bound Operator: "="
  half-life / min: 37
- Smiles Representation: "CCC(CC)c1cccc2c1C(=O)N(CSc1nnnn1-c1ccccc1)S2(=O)=O"
  Bound Operator: "="
  half-life / min: 100
- Smiles Representation: "O=C1c2ccccc2S(=O)(=O)N1CSc1nnnn1-c1ccccc1"
  Bound Operator: "<"
  half-life / min: 5
- Smiles Representation: "CC(C)c1cccc2c1C(=O)N(COC(=O)c1c(Cl)cccc1Cl)S2(=O)=O"
  Bound Operator: "="
  half-life / min: 30

====

Below are compounds with their k off as measured on Neutrophil elastase (Homo sapiens).

- Smiles Representation: "CC(C)c1cc(N(C)C)cc2c1C(=O)N(COC(=O)c1c(Cl)cccc1Cl)S2(=O)=O"
  k off, s⁻¹: "2.7e-05"
- Smiles Representation: "COc1cc2c(c(C(C)C)c1OC)C(=O)N(CSc1nnnn1-c1ccccc1)S2(=O)=O"
  k off, s⁻¹: "6.1e-05"
- Smiles Representation: "CC(C)c1cc(F)cc2c1C(=O)N(COC(=O)c1c(Cl)cccc1Cl)S2(=O)=O"
  k off, s⁻¹: "3e-05"
- Smiles Representation: "CC(C)c1cccc2c1C(=O)N(COC(=O)c1c(Cl)cccc1Cl)S2(=O)=O"
  k off, s⁻¹: "2.7e-05"
- Smiles Representation: "CCCc1c(OC)c(OC)cc2c1C(=O)N(CSc1nnnn1-c1ccccc1)S2(=O)=O"
  k off, s⁻¹: "4.7e-05"
- Smiles Representation: "CC(C)c1cc(N2CCN(C)CC2)cc2c1C(=O)N(COC(=O)c1c(Cl)cccc1Cl)S2(=O)=O"
  k off, s⁻¹: "2.4e-05"
